- assay.target: Human M4 (Homo sapiens)
- Construct: expressed in transfected cells; host or cells: CHO-K1 (Chinese hamster ovary) cells, stably co-transfected with Gqi5
- test.description: mAChR M4 cell-based functional assay (calcium flux, antagonism of EC80 acetylcholine response)
- condition: % ACh maximum at 30 μM; human M4; read-out: Emin
Below, each entry is listed with its recorded remaining activity at 30 µM.

compound: Cc1cccnc1CN1CC2CCC(CNc3ccc(-c4c(C)cnn4C)nn3)C2C1 (stereo not shown) [Compound 22]
assay.target: Human M4 (Homo sapiens)
remaining activity at 30 µM: 10.8%
--
compound: Cc1cnn(C)c1-c1ccc(NCC2CCC3CN(CC4CCOCC4)CC23)nn1 (stereo not shown) [Compound 25]
assay.target: Human M4 (Homo sapiens)
remaining activity at 30 µM: 27.8%
--
compound: Cc1cccnc1CN1CC2CCC(CCNc3ccc(-c4c(C)cnn4C)nn3)C2C1 (stereo not shown) [Compound 14]
assay.target: Human M4 (Homo sapiens)
remaining activity at 30 µM: 7.73%
--
compound: Cc1cnn(C)c1-c1ccc(NCCC2CCC3CN(CC4CC5C=CC4C5)CC23)nn1 (stereo not shown) [Compound 13]
assay.target: Human M4 (Homo sapiens)
remaining activity at 30 µM: 3.75%

* * *

Below, each entry is listed with its recorded remaining activity at 30 µM.
- assay.target: Human M4 (Homo sapiens, UniProt P08173)
- Construct: expressed in transfected cells; host or cells: CHO-K1 (Chinese hamster ovary) cells, stably co-transfected with Gqi5
- test.description: mAChR M4 cell-based functional assay (calcium flux, antagonism of EC80 acetylcholine response)
- condition: % ACh maximum at 30 μM; human M4; read-out: Emin

compound: Cc1cccnc1CN1CC2CCC(Oc3ccc(-c4c(C)cnn4C)nn3)C2C1 (centres unmarked) [Compound 4]
remaining activity at 30 µM (%): 31.9
//
compound: Cc1cnn(C)c1-c1ccc(NCCC2CCC3CN(Cc4ccccc4)CC23)nn1 (centres unmarked) [Compound 15]
remaining activity at 30 µM (%): 8.5
//
compound: Cc1cnn(C)c1-c1ccc(NCCC2CCC3CN(CC4CCOCC4)CC23)nn1 (centres unmarked) [Compound 12]
remaining activity at 30 µM (%): 29.4
//
compound: Cc1cnn(C)c1-c1ccc(NCCC2CCC3CN(CCCc4ccccc4)CC23)nn1 (centres unmarked) [Compound 17]
remaining activity at 30 µM (%): 5.4
//
compound: Cc1cnn(C)c1-c1ccc(NCC2CCC3CN(CC4CC5C=CC4C5)CC23)nn1 (centres unmarked) [Compound 21]
remaining activity at 30 µM (%): 5.19

* * *

- assay.target: Human M4 (Homo sapiens, UniProt P08173)
- Sequence (P08173 1-479): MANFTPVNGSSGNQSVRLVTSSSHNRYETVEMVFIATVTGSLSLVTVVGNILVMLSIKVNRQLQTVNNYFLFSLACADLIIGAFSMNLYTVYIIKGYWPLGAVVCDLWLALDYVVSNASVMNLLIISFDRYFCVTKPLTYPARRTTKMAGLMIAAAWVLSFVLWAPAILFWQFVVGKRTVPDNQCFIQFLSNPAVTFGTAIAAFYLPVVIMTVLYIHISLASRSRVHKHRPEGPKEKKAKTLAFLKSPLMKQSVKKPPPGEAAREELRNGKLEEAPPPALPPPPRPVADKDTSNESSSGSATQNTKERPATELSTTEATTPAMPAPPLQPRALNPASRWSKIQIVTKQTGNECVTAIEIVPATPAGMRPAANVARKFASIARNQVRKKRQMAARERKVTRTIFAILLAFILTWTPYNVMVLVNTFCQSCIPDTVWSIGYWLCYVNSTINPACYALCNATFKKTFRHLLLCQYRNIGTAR
- test.description: mAChR M4 cell-based functional assay (calcium flux, antagonism of EC80 acetylcholine response)
- condition: M4/Gqi5/CHO-K1 cells; decrease of response to EC80 acetylcholine
pIC50: −log10 of the molar value.

molecule: Cc1cnn(C)c1-c1ccc(OC2CCC3CN(CCc4ccccc4)CC32)nn1 (centres unmarked)
assay.target: Human M4 (Homo sapiens, UniProt P08173)
inequality.operator: <
pIC50: 5.00

molecule: Cc1cnn(C)c1-c1ccc(NCCC2CCC3CN(CC4CC5C=CC4C5)CC23)nn1 (centres unmarked)
assay.target: Human M4 (Homo sapiens, UniProt P08173)
inequality.operator: =
pIC50: 7.19

molecule: Cc1cnn(C)c1-c1ccc(NCCC2CCC3CN(CC4CCCOC4)CC23)nn1 (centres unmarked)
assay.target: Human M4 (Homo sapiens, UniProt P08173)
inequality.operator: <
pIC50: 5.00

molecule: Cc1cnn(C)c1-c1ccc(NC2CCC3CN(CCC(C)(C)C)CC32)nn1 (centres unmarked)
assay.target: Human M4 (Homo sapiens, UniProt P08173)
inequality.operator: <
pIC50: 5.00

molecule: Cc1cnn(C)c1-c1ccc(NCCC2CCC3CN(CC4CCOCC4)CC23)nn1 (centres unmarked)
assay.target: Human M4 (Homo sapiens, UniProt P08173)
inequality.operator: <
pIC50: 5.00

molecule: Cc1cnn(C)c1-c1ccc(NCCC2CCC3CN(CCC(C)(C)C)CC23)nn1 (centres unmarked)
assay.target: Human M4 (Homo sapiens, UniProt P08173)
inequality.operator: =
pIC50: 6.89

molecule: Cc1cnn(C)c1-c1ccc(NC2CCC3CN(CC45CC6CC(CC(C6)C4)C5)CC32)nn1 (centres unmarked)
assay.target: Human M4 (Homo sapiens, UniProt P08173)
inequality.operator: =
pIC50: 5.66

molecule: Cc1cnn(C)c1-c1ccc(NCC2CCC3CN(CC4CCOCC4)CC23)nn1 (centres unmarked)
assay.target: Human M4 (Homo sapiens, UniProt P08173)
inequality.operator: <
pIC50: 5.00

molecule: Cc1cnn(C)c1-c1ccc(NCC2CCC3CN(Cc4ccccc4)CC23)nn1 (centres unmarked)
assay.target: Human M4 (Homo sapiens, UniProt P08173)
inequality.operator: <
pIC50: 5.00

molecule: Cc1cnn(C)c1-c1ccc(NCCC2CCC3CN(Cc4ccccc4)CC23)nn1 (centres unmarked)
assay.target: Human M4 (Homo sapiens, UniProt P08173)
inequality.operator: =
pIC50: 5.65

molecule: Cc1cnn(C)c1-c1ccc(NC2CCC3CN(CC4CC5C=CC4C5)CC32)nn1 (centres unmarked)
assay.target: Human M4 (Homo sapiens, UniProt P08173)
inequality.operator: =
pIC50: 5.48

molecule: Cc1cnn(C)c1-c1ccc(OC2CCC3CN(CC4CC5C=CC4C5)CC32)nn1 (centres unmarked)
assay.target: Human M4 (Homo sapiens, UniProt P08173)
inequality.operator: =
pIC50: 5.87

molecule: Cc1cnn(C)c1-c1ccc(NCCC2CCC3CN(CCCc4ccccc4)CC23)nn1 (centres unmarked)
assay.target: Human M4 (Homo sapiens, UniProt P08173)
inequality.operator: =
pIC50: 5.98

molecule: Cc1cccnc1CN1CC2CCC(Oc3ccc(-c4c(C)cnn4C)nn3)C2C1 (centres unmarked)
assay.target: Human M4 (Homo sapiens, UniProt P08173)
inequality.operator: <
pIC50: 5.00

molecule: Cc1cnn(C)c1-c1ccc(NCCC2CCC3CN(CCc4ccccc4)CC23)nn1 (centres unmarked)
assay.target: Human M4 (Homo sapiens, UniProt P08173)
inequality.operator: =
pIC50: 5.66

molecule: Cc1cnn(C)c1-c1ccc(NCC2CCC3CN(CC45CC6CC(CC(C6)C4)C5)CC23)nn1 (centres unmarked)
assay.target: Human M4 (Homo sapiens, UniProt P08173)
inequality.operator: =
pIC50: 7.28

molecule: Cc1cnn(C)c1-c1ccc(OC2CCC3CN(CC45CC6CC(CC(C6)C4)C5)CC32)nn1 (centres unmarked)
assay.target: Human M4 (Homo sapiens, UniProt P08173)
inequality.operator: =
pIC50: 5.99

molecule: Cc1cnn(C)c1-c1ccc(OC2CCC3CN(CCC(C)(C)C)CC32)nn1 (centres unmarked)
assay.target: Human M4 (Homo sapiens, UniProt P08173)
inequality.operator: =
pIC50: 5.45

molecule: Cc1cccnc1CN1CC2CCC(CNc3ccc(-c4c(C)cnn4C)nn3)C2C1 (centres unmarked)
assay.target: Human M4 (Homo sapiens, UniProt P08173)
inequality.operator: =
pIC50: 5.82

molecule: Cc1cnn(C)c1-c1ccc(NCC2CCC3CN(CCC(C)(C)C)CC23)nn1 (centres unmarked)
assay.target: Human M4 (Homo sapiens, UniProt P08173)
inequality.operator: =
pIC50: 6.83

molecule: Cc1cnn(C)c1-c1ccc(NCC2CCC3CN(CCc4ccccc4)CC23)nn1 (centres unmarked)
assay.target: Human M4 (Homo sapiens, UniProt P08173)
inequality.operator: =
pIC50: 6.12

molecule: Cc1cnn(C)c1-c1ccc(NCC2CCC3CN(CC4CC5C=CC4C5)CC23)nn1 (centres unmarked)
assay.target: Human M4 (Homo sapiens, UniProt P08173)
inequality.operator: =
pIC50: 7.26

molecule: Cc1cnn(C)c1-c1ccc(NCC2CCC3CN(CC4CCCOC4)CC23)nn1 (centres unmarked)
assay.target: Human M4 (Homo sapiens, UniProt P08173)
inequality.operator: <
pIC50: 5.00

molecule: Cc1cccnc1CN1CC2CCC(CCNc3ccc(-c4c(C)cnn4C)nn3)C2C1 (centres unmarked)
assay.target: Human M4 (Homo sapiens, UniProt P08173)
inequality.operator: =
pIC50: 5.75

molecule: Cc1cnn(C)c1-c1ccc(NCCC2CCC3CN(CC45CC6CC(CC(C6)C4)C5)CC23)nn1 (centres unmarked)
assay.target: Human M4 (Homo sapiens, UniProt P08173)
inequality.operator: =
pIC50: 6.40

molecule: Cc1cnn(C)c1-c1ccc(OC2CCC3CN(Cc4ccccc4)CC32)nn1 (centres unmarked)
assay.target: Human M4 (Homo sapiens, UniProt P08173)
inequality.operator: <
pIC50: 5.00
